# assay_explanation: Caspase-3/7 induction in HepG2 cells by small molecules, qHTS cell viability counter screen (AID 1346981); further: nearly all actives have a fitted effect of over 30% in size
# assay_context: CellTiter-Fluor fluorescence, 17 h; series mostly up to 92.4 µM
Results filed as inconclusive are left out. Activity calls are given as the source filed them. The call rests on the fitted dose curve; in most records, active means well fitted cell-killing curve with a large enough effect in the repeat runs; inconclusive means weak or mixed curves, or effect the other way; inactive means flat fitted curve, though single readings scatter.
Answer with one of the outcomes given here: True (active), False (inactive)

For orientation, consider the following solved cases.
{"compound": "c1ccc(-c2ccccn2)nc1", "label_class": "False"}
{"compound": "CCCCOC(=O)CCCCCCCC(=O)OCCCC", "label_class": "False"}
{"compound": "CC(COCCO)OCCO (stereo unspecified)", "label_class": "False"}
{"compound": "O=S(=O)(Oc1ccc(Cl)cc1)c1ccccc1", "label_class": "False"}
{"compound": "COc1cc(Cl)c(OC)cc1N", "label_class": "False"}
{"compound": "C[N+](C)(C)CCOC(=O)CCC(=O)OCC[N+](C)(C)C", "label_class": "False"}

Enquiry: Could you please tell me the result logged for CC(=O)[O][Al][O]C(C)=O in this assay?
Return: False

Enquiry: Check C/C=C(/C(=C/C)c1ccc(OC(C)=O)cc1)c1ccc(OC(C)=O)cc1 too.
Return: False

Enquiry: Check C[C@H]1C[C@H]2[C@@H]3CCC4=CC(=O)C=C[C@]4(C)[C@@]3(Cl)[C@@H](O)C[C@]2(C)[C@@]1(O)C(=O)CO too.
Return: False

Enquiry: Check COc1cc2nc(N(C)CCCNC(=O)C3CCCO3)nc(N)c2cc1OC (stereo unspecified) too.
Return: False

Enquiry: Check COC(C)(C)CCO too.
Return: False

Enquiry: Check Nc1cccc([N+](=O)[O-])c1 too.
Return: False

Enquiry: Check O=C(CS)Nc1ccccc1 too.
Return: False

###

# assay_explanation: qHTS RealTime-Glo MT Cell Viability Assay in HepG2 cells - 8 hour (AID 1224873); further: nearly all actives have a fitted effect of over 55% in size
# assay_context: RealTime-Glo luminescence; series mostly up to 76.8 µM
Records with an inconclusive call do not appear. The source made the active and inactive calls. Calls follow the shape of the dose curve; as a rule, active = well fitted cell-killing curve with a large enough effect in the repeat runs; inconclusive = weak or mixed curves; inactive = flat fitted curve, though single readings scatter.
assay_endpoint: viability change, negative = cytotoxic

{"molecule": "CCOC(=O)Cc1cccc2ccccc12", "viability change, negative = cytotoxic": "inactive"}
{"molecule": "CN1CCC(=C2c3ccccc3Sc3ccccc32)CC1", "viability change, negative = cytotoxic": "inactive"}
{"molecule": "CCCCCCCCCCCCCCCCCCOS(=O)(=O)O", "viability change, negative = cytotoxic": "inactive"}
{"molecule": "CCOC(=O)C(=O)CCc1ccccc1", "viability change, negative = cytotoxic": "inactive"}
{"molecule": "O=S(=O)(Oc1ccc(Cl)cc1)c1ccccc1", "viability change, negative = cytotoxic": "inactive"}

Enquiry: Query: viability change, negative = cytotoxic; subject: Nc1ccccc1S(=O)(=O)c1ccccc1
Return: inactive

Enquiry: Check COS(=O)(=O)C(F)(F)F too.
Return: inactive

Enquiry: Check CN1CCN(C(c2ccccc2)c2ccccc2)CC1 too.
Return: inactive

Enquiry: Check CCCCCCCCCCCCN1CCCCCC1=O too.
Return: inactive

Enquiry: Check C[N+]1(CC2COC(c3ccccc3)(C3CCCCC3)O2)CCCCC1 (stereo not drawn) too.
Return: inactive

Enquiry: Check C=C1C(=C/C=C2\CCC[C@]3(C)[C@@H]([C@H](C)/C=C/[C@@H](O)C4CC4)CC[C@@H]23)C[C@@H](O)C[C@@H]1O too.
Return: inactive

Enquiry: Check O=C(CS)Nc1ccccc1 too.
Return: inactive

Enquiry: Check C=CC1CC2C=CC1C2 (stereo not drawn) too.
Return: inactive

The values you see were collected from PubChem BioAssay (Tox21).
